Listing of recorded IC50, HEK-Blue IL-13Ra1/IL-4Ra STAT6-SEAP reporter assay by entry.
molecular target: human IL-13 (human, UniProt P35225 25-146, limits assumed); assay: cell-based or functional assay
Sequence (P35225 other isoform, or with tags, fused parts or gaps limits assumed): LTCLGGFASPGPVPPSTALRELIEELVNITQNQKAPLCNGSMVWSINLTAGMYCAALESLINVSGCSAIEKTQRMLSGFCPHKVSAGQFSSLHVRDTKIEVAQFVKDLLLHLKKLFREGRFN
Response body: numeric value in µg/mL, unit text excluded.

# binder, measured-number
measured = [
    ("AbB (antibody, human IgG1, kappa, V domains shown) VH: QVTLRESGPALVKPTQTLTLTCTVSGASLSAYSVNWIRQPPGKALEWLAMIWGDGKIVYNSALKSRLTISKDTSKNQVVLTMTNMDPVDTATYYCAGDGYYPYAMDNWGQGSLVTVSS VL: DIVMTQSPDSLSVSLGERATINCRASKSVDYYGHSYMHWYQQKPGQPPKLLIYLASNLESGVPDRFSGSGSGTDFTLTISSLQAEDVAVYYCQQNNEDPRTFGGGTKVEIKR", 0.132),
]

Now for a further binder.
Can you look up the measured IC50, HEK-Blue IL-13Ra1/IL-4Ra STAT6-SEAP reporter assay of AbC (antibody, human IgG1, kappa, V domains shown) VH: QVTLRESGPALVKPTQTLTLTCTVSGFSLSAYSVNWIRQPPGKALEWLAMIWGDGKIVYNSALKSRLTISKDTSKNQVVLTMTNMDPVDTATYYCAGDGYYPYAMDYWGQGSLVTVSS VL: DIVMTQSPDSLSVSLGERATINCRASKSVDYYGNSYMHWYQQKPGQPPKLLIYLASNLESGVPDRFSGSGSGTDFTLTISSLQAEDVAVYYCQQNNEDPRTFGGGTKVEIKR for me?
0.118
